All values here come from PubChem BioAssay (NCI).

Test system: OVCAR-5 ovarian
Experiment: NCI tumour cell line growth inhibition, 48 h
// reported TGI per item

The examples below pair each entry with its known result.
c1ccc2cc(-c3cc4ccccc4s3)ccc2c1	> 100 µM
CC1(C)OC(C(=O)Nc2cc3c4ccccc4ccc3c3ccccc23)C(C(=O)N2CCCCC2)O1 (stereo not given)	> 100 µM
CCCCC#CC1=C(Br)C(=O)OC1	7.38 µM
C[n+]1c2ccc(Cl)cc2nc2cc(-c3ccccc3)ccc21	55.5 µM
O=C(O)COc1ccc2c(=O)c3sc4c(=O)c5ccccc5c(=O)c4c3c(=O)c2c1	34.3 µM
[N-]=[N+]=NC1(Cc2ccccc2)C(=O)c2cccc3c2N(CCC3)C1=O (stereo not given)	> 100 µM
CCOC(=O)c1ccc(NC(=O)Oc2ccc3c(C)cc(=O)oc3c2)cc1	> 100 µM
CCOC(=O)C1=CN(C)C=C(C(=O)OCC)C1c1cc(Br)c(OCC)c(OC)c1	> 100 µM
CC(=O)Nc1ccc(N=Nc2c(O)c(S(=O)(=O)O)cc3cc(S(=O)(=O)O)ccc23)cc1	> 100 µM

Here is the next item to consider.
## Task Give the value of TGI reported for the following: CN(CCSCCN(C)C(=O)OC(C)(C)C)C(=O)OC(C)(C)C
## Result > 100 µM

----------
Tested on: KM12 colon
Assay: NCI tumour cell line growth inhibition, 48 h
METRIC: TGI

Examples with their reported TGI follow.
COc1cc(OC)c2nc(C)c(CCCl)c(Cl)c2c1	> 100 µM
CCCCOC(=O)CNC(=O)OC/C=C/C#CC#C/C=C/COC(=O)NCC(=O)OCCCC	> 100 µM
c1ccc2cc(-c3cc4ccccc4s3)ccc2c1	> 100 µM

## Task Report TGI from KM12 colon testing of O=c1sc2ccccc2n1CC1CS1 (configuration not stated)
## Result > 100 µM

## Task Check KM12 colon data and give TGI for C/C=C/C(CC(O)(C(F)(F)F)C(F)(F)F)=N/NC(N)=S .
## Result > 10 µM

## Task Give measured TGI for COC(=O)c1c(O)ccc2c1c1c(n2Cc2cc(OC)cc(OC)c2)C(=O)c2ccccc2C1 (KM12 colon).
## Result > 100 µM

## Task Please respond with reported TGI (system KM12 colon) for O=C(CCN(C(=O)O)S(=O)(=O)c1ccc(NC(=O)c2ccccc2)cc1)Nc1ccccc1 .
## Result > 100 µM

## Task State the measured TGI (KM12 colon) of Cc1ccc(S(=O)(=O)Nc2ccccc2C=O)cc1
## Result 33.5 µM

## Task State measured TGI of the molecule CC(C)NC(=O)OCc1c(COC(=O)NC(C)C)c(-c2cc[n+](COC(=O)C3CC3)cc2)n2c1CCC2 with KM12 colon.
## Result > 100 µM

## Task Provide measured TGI on KM12 colon for CCOC(=O)NC(Nc1ccc(C)cc1)(C(F)(F)F)C(F)(F)F please.
## Result > 100 µM

## Task Please report the measured TGI for N.N.N.N.O=C([O-])CCl.O=C([O-])CCl.[Co+3].[O-][Cl+3]([O-])([O-])[O-] tested on KM12 colon.
## Result > 100 µM

## Task Param request: TGI | system KM12 colon | item O=C1c2ccccc2C(=O)N1CCn1ccc(NC(c2ccccc2)(c2ccccc2)c2ccccc2)nc1=O
## Result 49.1 µM

## Task System KM12 colon. Read-out TGI. Item NC(=S)N/N=C/C(=O)O . Report value.
## Result > 100 µM

## Task Write down measured TGI (KM12 colon) for this molecule. NC(=S)N/N=C(\CC1OC(=O)c2ccccc21)c1ccc(Cl)cc1 (configuration not stated)
## Result 52 µM

## Task Given COC(=O)c1ccc2c(c1)nc(NC(=O)c1ccccc1)n2CCCc1ccccc1 , report its TGI on KM12 colon.
## Result > 100 µM
